target: human DGKα (Homo sapiens, UniProt P23743); construct: TVMV protease cleavage site (C); Hexa-His (C); made in house; host or cells: Sf9 insect cells (baculovirus, Bac-to-Bac); test: DGKα LIPGLO assay (extruded liposome substrate), in vitro DGK inhibition; type: biochemical; conditions: liposome (LIPGLO) assay; read-out: DGKa LIPGLO IC50
Sequence (P23743 with tags, fused parts or gaps): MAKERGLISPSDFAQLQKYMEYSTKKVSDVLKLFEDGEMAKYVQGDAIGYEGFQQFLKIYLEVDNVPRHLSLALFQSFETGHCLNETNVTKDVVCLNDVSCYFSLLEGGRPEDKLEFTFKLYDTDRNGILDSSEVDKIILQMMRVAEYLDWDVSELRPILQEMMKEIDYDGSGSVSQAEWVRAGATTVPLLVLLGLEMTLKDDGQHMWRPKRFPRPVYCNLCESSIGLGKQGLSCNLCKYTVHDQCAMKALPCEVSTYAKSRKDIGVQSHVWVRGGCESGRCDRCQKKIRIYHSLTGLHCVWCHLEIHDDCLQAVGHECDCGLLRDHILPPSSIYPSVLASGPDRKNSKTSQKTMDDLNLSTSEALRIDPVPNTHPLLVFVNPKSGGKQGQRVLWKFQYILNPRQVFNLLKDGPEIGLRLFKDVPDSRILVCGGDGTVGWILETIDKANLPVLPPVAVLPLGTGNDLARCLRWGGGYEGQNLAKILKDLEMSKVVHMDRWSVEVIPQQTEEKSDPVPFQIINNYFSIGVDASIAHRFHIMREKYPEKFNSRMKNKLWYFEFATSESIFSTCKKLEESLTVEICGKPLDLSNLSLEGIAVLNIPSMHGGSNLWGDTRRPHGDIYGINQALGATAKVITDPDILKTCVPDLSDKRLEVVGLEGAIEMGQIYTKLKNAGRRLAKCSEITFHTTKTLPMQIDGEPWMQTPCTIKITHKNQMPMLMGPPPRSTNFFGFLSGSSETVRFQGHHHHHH
resultType: log10(IC50) (log10 of the value in nM)

molecule	resultType	recordedMeasurement
COCCOc1cc(C(C)N2C[C@H](C)N(c3cc(=O)n(C)c4ccc(C#N)nc34)C[C@H]2C)ccc1OC (single isomer, unassigned) [Example 1303]	log10(IC50)	4.81
C[C@@H]1CN(c2c(C#N)c(=O)n(C)c3ccc(C#N)nc23)CCN1C(c1ccc(F)cc1)c1nccs1 (single isomer, unassigned) [Example 1025]	log10(IC50)	3.08
C[C@@H]1CN(c2cc(=O)n(C)c3ccc(C#N)nc23)[C@@H](C)CN1Cc1cccc2c1ccn2C	log10(IC50)	3.72
COC(=O)C1CN(c2cc(=O)n(C)c3ccc(C#N)nc23)CCN1C(c1ccc(F)cc1)c1ccc(F)cc1OC (single isomer, unassigned) [Example 68]	log10(IC50)	4.26
CC[C@H]1CN(C(c2ccc(F)cc2)c2ccon2)[C@H](CC)CN1c1cc(=O)n(C)c2ccc(C#N)nc12 (single isomer, unassigned) [Example 1073]	log10(IC50)	1.52
CC(c1ccc(OC(F)(F)F)cc1)N1C[C@H](C)N(c2cc(=O)n(C)c3ccc(C#N)nc23)C[C@H]1CO (single isomer, unassigned) [Example 1387]	log10(IC50)	3.41
C[C@@H]1CN(c2cc(=O)n(C)c3ccc(C#N)nc23)[C@@H](C)CN1C(c1ccc(Cl)cc1)c1ccc2c(c1)OC(F)(F)O2 (single isomer, unassigned) [Example 656]	log10(IC50)	4.36
Cn1c(=O)c(C#N)c(N2CCN(C(c3ccc(F)cc3)c3ccc(F)cc3)C(CO)C2)c2nc(C#N)ccc21 (single isomer, unassigned) [Example 15]	log10(IC50)	3.71
CC[C@@H]1CN(c2cc(=O)n(C)c3ccc(C#N)nc23)[C@@H](C)CN1C(c1ccc(OC(F)(F)F)cc1)c1ccccn1 (single isomer, unassigned) [Example 340]	log10(IC50)	2.51
C[C@@H]1CN(c2c(Cl)c(=O)n(C)c3ccc(C#N)nc23)[C@@H](C)CN1C(c1ccc(F)cc1)c1ccc(F)cc1	log10(IC50)	2.90
Cc1ccc(C(c2ccc(C)c(Cl)c2)N2C[C@H](C)N(c3cc(=O)n(C)c4ccc(C#N)nc34)C[C@H]2C)nc1 (single isomer, unassigned) [Example 373]	log10(IC50)	3.81
C[C@@H]1CN(c2cc(=O)n(C)c3ccc(C#N)nc23)[C@@H](C)CN1C(c1ccccc1)c1ccc(OC(F)(F)F)cc1 (single isomer, unassigned) [Example 221]	log10(IC50)	3.08
C[C@@H]1CN(c2cc(=O)n(C)c3ccc(C#N)nc23)[C@@H](C)CN1CCc1ccccc1	log10(IC50)	3.81
CC[C@@H]1CN(c2cc(=O)n(C)c3ccc(C#N)nc23)[C@@H](C)CN1C(c1ccc(Cl)cc1)c1ccccn1 (single isomer, unassigned) [Example 422]	log10(IC50)	2.08
COC(=O)C1CN(c2c([N+](=O)[O-])c(=O)n(C)c3ccc(C#N)nc23)CCN1C(c1ccc(F)cc1)c1ccc(F)cc1 (single isomer, unassigned)	log10(IC50)	2.72
COc1ccc(C(C)N2C[C@H](C)N(c3cc(=O)n(C)c4ccc(C#N)nc34)C[C@H]2C)nc1 (single isomer, unassigned) [Example 644]	log10(IC50)	2.20

meta.source: patent US10669272B2
